tested on: human PBMCs; assay: Human osteoclastogenesis / cell fusion of PBMCs under M-CSF+RANKL stimulation (TRAP+ osteoclast-like cells); assay type: cell-based; settings: PBMC, FIGS. 10A-B, read-out: inhibition of cell fusion, IC50
Provide the reported IC50 of each item.
Give bare numbers, in nM.

Tell us which IC50 value is on record for `Clc1ccccc1C(c1ccccc1)(c1ccccc1)n1cccn1`
800

Now, please, on to the next compound.
Please give measured IC50 of the following entry: `NC(=O)C(c1ccccc1)(c1ccc(F)cc1)c1ccc(F)cc1`
300
